- Tested on: ACHN renal
- method: NCI tumour cell line growth inhibition, 48 h; in the data active = GI50 below about 0.43 µM; inactive = the rest
Respond with a class label; see class 1 (active), class 0 (inactive)

Use these answered entries as a reference point.
[[record]]
compound = "Oc1cccc(Cn2c(-c3cccc(O)c3O)nc3ccccc32)c1O"
category_label = "class 0"

[[record]]
compound = "C#Cc1cccc(Nc2ncnc3ccc(-c4cnc(Cl)c(NS(C)(=O)=O)c4)cc23)c1"
category_label = "class 0"

[[record]]
compound = "Oc1ccc2ccccc2c1N=Nc1ccccn1"
category_label = "class 1"


Next item in the queue.
(Q) For this compound, state the assay outcome: C/C=C1\C(=O)O[C@@H]2C1C[C@@H]1O[C@H]2[C@H](C)CCC/C(C)=C/CC[C@@]1(C)O (some centres undefined)
(A) class 0

###

Please go through the items and note down their GI50.
- System: LOX IMVI melanoma
- method: NCI tumour cell line growth inhibition, 48 h

[[record]]
compound_structure = "O=C1C(Cl)=C(Nc2cccc(O)c2)C(=O)N1c1cccc(Cl)c1"
measurement = "22.4 µM"

[[record]]
compound_structure = "O=c1ccccc(-c2ccc(-c3ccco3)cc2)c1O"
measurement = "0.472 µM"


Let's switch to this compound now.
(Q) Recorded GI50 for Cc1cccc2c1NC(=O)[C@@]21[C@H](C(=O)c2ccccc2)[C@]2(C(=O)Nc3ccccc32)[C@H]2CCCN21 , please?
(A) 34.5 µM

###

- Test system: 786-0 renal
- method: NCI tumour cell line growth inhibition, 48 h
recorded-endpoint: TGI

Use these answered entries as a reference point.
[[record]]
compound = "CCOC(=O)/C=C(\\N=P(c1ccccc1)(c1ccccc1)c1ccccc1)C(F)(F)C(F)(F)C(F)(F)C(F)(F)C(F)(F)F"
recorded_endpoint = "TGI"
measurement = "> 100 µM"

[[record]]
compound = "CNC(=O)c1cncc(/C=C/c2c(C)cccc2C)c1"
recorded_endpoint = "TGI"
measurement = "> 25 µM"

[[record]]
compound = "CCc1n[nH]c(=O)n1NC(=O)c1ccccc1C(=O)O"
recorded_endpoint = "TGI"
measurement = "> 100 µM"

[[record]]
compound = "CC1(C)CCC2(C(=O)O)CC[C@]3(C)C(=CCC4C5(C)CC[C@H](OC6OC(C(=O)O)C(O)C(OC7OC(CO)C(O)C(O)C7O)C6OC6OC(CO)C(O)C(O)C6O)C(C)(C)C5CCC43C)C2C1 (stereo not given in full)"
recorded_endpoint = "TGI"
measurement = "> 100 µM"


Let's switch to this compound now.
(Q) Recorded TGI for COc1cc2ccnc3c2c(c1OC)CC1CC(O)C(OC)CC31 (stereo not given) , please?
(A) > 100 µM

###

- System: 786-0 renal
- method: NCI tumour cell line growth inhibition, 48 h; in the data active = GI50 below about 0.43 µM; inactive = the rest
Respond with a class label; see Y = active, N = inactive

[[record]]
molecule = "O=C(Nc1ccc(Cl)cc1)c1cc2cc(F)ccc2cc1O"
category_label = "N"

[[record]]
molecule = "O=C(O[C@H]1CN[C@H](C#Cc2cc3ncnc(Nc4ccc(OCc5cccc(F)c5)c(Cl)c4)c3s2)C1)N1CCOCC1"
category_label = "N"

[[record]]
molecule = "CCC1CCCCN1C(=S)N/N=C(\\C)c1ccccn1 (centres undefined)"
category_label = "N"

[[record]]
molecule = "Cc1cccc2c1NC(=O)[C@@]21[C@H](C(=O)c2ccccc2)[C@]2(C(=O)Nc3ccccc32)[C@H]2CCCN21"
category_label = "N"

[[record]]
molecule = "CCn1cc(C(=O)N/N=C/c2cccc(F)c2)c(=O)c2cc(F)c(N3CCNC(C)C3)c(F)c21 (centres undefined)"
category_label = "N"

[[record]]
molecule = "COc1ccccc1N1CCN(C(=O)c2ccc(NS(=O)(=O)c3cccc4cccnc34)cc2)CC1"
category_label = "N"

[[record]]
molecule = "O=C1c2cccc3cc([N+](=O)[O-])cc(c23)C(=O)N1CCN1CCCC1"
category_label = "Y"

[[record]]
molecule = "CN(C)Cc1cccc(CN(C)C)[c]1[Sn]([Br])([c]1ccccc1)[c]1ccccc1"
category_label = "N"


Next item in the queue.
(Q) For this molecule, state the assay outcome: CCCCNC(=O)Oc1ccc2c(=O)c3sc4c(=O)c5ccccc5c(=O)c4c3c(=O)c2c1
(A) N

###

- System: SK-MEL-2 melanoma
- method: NCI tumour cell line growth inhibition, 48 h
Please go through the items and note down their TGI.

[[record]]
compound = "CC(=O)NNC(=S)/N=C/c1c(O)cc(C)oc1=O"
measurement = "> 100 µM"


Consider the following items and state reported TGI for each.
1. O=c1[nH]c(Nc2cccc(Br)c2)nc2nc[nH]c12
2. CC1=C(C(=O)NCC(C)O)CC(C(=O)NCC(C)O)=C(C)N1 (configuration not stated)
3. Cc1[nH]c2ccccc2c1C1CC(=O)NC1=O (configuration not stated)

(A)
1. > 100 µM
2. > 100 µM
3. > 100 µM

Consider the following items and state reported TGI for each.
1. O=C(/C=C/c1cccs1)c1cccc(C(=O)/C=C/c2cccs2)n1
2. CCc1n[nH]c(=O)n1NC(=O)c1ccccc1C(=O)O
3. COC1CC2C=CC3C4OC2(/C(C)=C/C(C)C(C(C)O)OC1=O)C3C(O)C(C)C4OC(=O)c1ccc[nH]1 (configuration not stated)
4. CSc1nncc2[nH]cnc12
5. COC(OC)(c1ccccc1)C(I)I
6. O=C(N/N=C\c1ccc([N+](=O)[O-])cc1)c1ccccc1Nc1ccccc1C(=O)N/N=C/c1ccc([N+](=O)[O-])cc1
7. C#Cc1cccc(Nc2ncnc3ccc(-c4cnc(Cl)c(NS(C)(=O)=O)c4)cc23)c1

(A)
1. > 100 µM
2. > 100 µM
3. > 100 µM
4. > 100 µM
5. 35.4 µM
6. > 100 µM
7. 1.62 µM

Consider the following items and state reported TGI for each.
1. Cc1ccc([N+](=O)[O-])cc1S(=O)(=O)Nc1ccc(C2=NNC(c3cccs3)C2)cc1 (configuration not stated)
2. CCC1CCCCN1C(=S)N/N=C(\C)c1ccccn1 (configuration not stated)

(A)
1: > 100 µM; 2: 1.65 µM

Consider the following items and state reported TGI for each.
1. N#Cc1nn(C2OC(COC(=O)c3ccccc3)C(OC(=O)c3ccccc3)C2OC(=O)c2ccccc2)c2nc[nH]c(=O)c12 (configuration not stated)
2. COc1ccc(C2SCC(=O)N2NC(=O)C(C)Oc2ccccc2Cl)cc1 (configuration not stated)
3. CCCCCCCC(=O)OCC1OC(n2cc(F)c(=O)[nH]c2=O)C(NC(=O)OCc2ccccc2)C(OC(=O)CCCCCCC)C1O (configuration not stated)
4. COc1cc2c(cc1OC)C(Cc1ccccc1CCCl)=NCC2

(A)
1. > 100 µM
2. 50 µM
3. 57.1 µM
4. > 100 µM

###

- Test system: TK-10 renal
- method: NCI tumour cell line growth inhibition, 48 h
recorded-endpoint: TGI

Use these answered entries as a reference point.
[[record]]
molecule = "CC1(C)CCC2(C(=O)O)CC[C@]3(C)C(=CCC4C5(C)CC[C@H](OC6OC(C(=O)O)C(O)C(OC7OC(CO)C(O)C(O)C7O)C6OC6OC(CO)C(O)C(O)C6O)C(C)(C)C5CCC43C)C2C1 (stereo partly drawn)"
recorded_endpoint = "TGI"
measurement = "> 100 µM"

[[record]]
molecule = "CCOC(=O)CNC1C(NC(C)=O)C(OC)OC2COC(c3ccccc3)OC21 (stereo not drawn)"
recorded_endpoint = "TGI"
measurement = "> 100 µM"


Let's switch to this molecule now.
(Q) Recorded TGI for CC(=O)N1N=C(N)CC1=O , please?
(A) > 100 µM

###

- System: SF-295 CNS
- method: NCI tumour cell line growth inhibition, 48 h
recorded-endpoint: TGI (µM)
Answers are plain numbers, in µM.

[[record]]
compound_structure = "CCOC(=O)C#Cc1ccc([N+](=O)[O-])cc1"
recorded_endpoint = "TGI"
measurement = 25.6


Let's switch to this molecule now.
(Q) Recorded TGI for O=C1c2cccc3cc([N+](=O)[O-])cc(c23)C(=O)N1CCN1CCCC1 , please?
(A) 0.734

###

Please go through the items and note down their TGI.
- System: NCI-H23 lung
- method: NCI tumour cell line growth inhibition, 48 h

[[record]]
compound_structure = "Cc1ccc(Nc2nc(=O)[nH]c(=O)[nH]2)cc1N=[N+]=[N-]"
measurement = "> 100 µM"

[[record]]
compound_structure = "CN(C1=NS(=O)(=O)N=C(N(C)c2ccccc2)O1)c1ccccc1"
measurement = "28.3 µM"


Let's switch to this compound now.
(Q) Recorded TGI for CC1(C)C[C@H](O)[C@H](O)[C@]23C(=O)O[C@H](O)[C@H]2C(C=O)=CC[C@@H]13 , please?
(A) > 100 µM

###

- Test system: T-47D breast
- method: NCI tumour cell line growth inhibition, 48 h
Where a SMILES comes first, the peptide text is derived from it. The star is where a group is joined. Boc = CC(C)(C)OC(=O)*
Please go through the items and note down their TGI.

[[record]]
compound = "CCOCC(NC(=O)C(CC(C)C)NC(=O)OC(C)(C)C)C(N)=O (stereo not drawn) (Boc-Leu-Ser(Et)-NH2; configuration not given here)"
recorded_endpoint = "TGI"
measurement = "> 100 µM"


Consider the following items and state reported TGI for each.
1. CC(C)CC1[C@@H](OCc2ccccc2)COS(=O)(=O)N1Cc1ccccc1 (stereo not given in full)
2. CCOC(=O)/C=C(\N=P(c1ccccc1)(c1ccccc1)c1ccccc1)C(F)(F)C(F)(F)C(F)(F)C(F)(F)C(F)(F)F
3. COc1ccc(N=C2C(=Nc3ccc(OC)cc3)N(S(=O)(=O)c3ccccc3)C(=S)N2c2ccc(OC)cc2)cc1
4. O=C(N/N=C\c1ccc([N+](=O)[O-])cc1)Nc1cccc2ccccc12

(A)
1. > 100 µM
2. > 100 µM
3. > 100 µM
4. > 47.6 µM
